Task for the reader: assign each of the following molecules its reported GI50.
# Test system: RXF 393
# EXPERIMENTAL PROTOCOL: NCI tumour cell line growth inhibition, 48 h
Calls of active or inactive are those of the source. No stated cut-off is given here; in the data, active = GI50 up to about 1.1 µM and inactive = higher.

[
  {
    "MOLECULE": "COc1ccc2c(c1)CCN=C2c1ccccc1CCCCl",
    "GI50": "22.6 µM (inactive)"
  },
  {
    "MOLECULE": "COc1ccc(C2C3=C(COC3=O)OC(C)(C)Oc3cc4c(cc32)OCO4)cc1OC (configuration not stated)",
    "GI50": "31.5 µM (inactive)"
  }
]

Here are 5 molecules. What values of GI50 were reported for them?
1. C[C@H](N)C(=O)Nc1ccc(-c2nc3ccccc3s2)cc1Cl
2. Clc1cccc(-c2nnc(-c3nn(-c4ccccc4)c4nc5ccccc5nc34)o2)c1
3. COC(=O)C(CBr)CBr
4. C#CC1(O)c2ccccc2C(=O)c2ccccc21
5. O=[N+]([O-])/C(Cl)=C(\NCCO)C(Cl)=C(Cl)Cl

Response:
1. 15.1 µM (inactive)
2. 56.2 µM (inactive)
3. 2.19 µM (inactive)
4. > 100 µM (inactive)
5. 56.1 µM (inactive)

* * *

# Test system: M19-MEL
# EXPERIMENTAL PROTOCOL: NCI tumour cell line growth inhibition, 48 h
Activity calls are given as the source filed them. Rule as the data show it: active = GI50 up to about 1.1 µM and inactive = higher.
EXPERIMENTAL ENDPOINT: GI50

Answered examples (6):
[
  {
    "COMPOUND": "CC(=O)CNC(=O)OC(C)(C)C",
    "SYSTEM NAME": "M19-MEL",
    "GI50": "> 100 µM (inactive)"
  },
  {
    "COMPOUND": "CC(C)(C)OC(=O)c1cccnc1/C=N/O",
    "SYSTEM NAME": "M19-MEL",
    "GI50": "> 100 µM (inactive)"
  },
  {
    "COMPOUND": "O=NN(CCCl)C(=O)NCCCl",
    "SYSTEM NAME": "M19-MEL",
    "GI50": "77.6 µM (inactive)"
  },
  {
    "COMPOUND": "CC1=CC(O)(c2ccc(-c3ccccc3Cl)cc2)OC1=O (configuration not stated)",
    "SYSTEM NAME": "M19-MEL",
    "GI50": "> 100 µM (inactive)"
  },
  {
    "COMPOUND": "CCOC(=O)C[n+]1ccc2c([nH]c3cc(OC)ccc32)c1C",
    "SYSTEM NAME": "M19-MEL",
    "GI50": "> 100 µM (inactive)"
  },
  {
    "COMPOUND": "O=c1cc(-c2cccnc2)[nH]c2cc3c(cc12)OCO3",
    "SYSTEM NAME": "M19-MEL",
    "GI50": "3.59 µM (inactive)"
  }
]

Here are 3 compounds. What values of GI50 were reported for them?
1. CN(C)C(=S)Nc1nnc(Nc2ccccc2)s1
2. N#CC(C#N)=C(N)/C(C#N)=C/c1cc(O)c(O)c(Br)c1
3. COC(=O)C1=C(C)N(NC(N)=O)C2(N)N(NC(N)=O)C(C)=C(C(=O)OC)C12C(=O)OC (configuration not stated)

Response:
1. > 100 µM (inactive)
2. > 100 µM (inactive)
3. > 100 µM (inactive)

Here are 3 compounds. What values of GI50 were reported for them?
1. C#CCC(N)(CO)C(=O)O (configuration not stated)
2. O=C1N[C@@H](O)[C@@H]2ON=C(c3ccccc3)[C@H]12
3. COC(CC1(OC)OC(=O)C=C1N)OC (configuration not stated)

Response:
1. > 100 µM (inactive)
2. > 100 µM (inactive)
3. > 100 µM (inactive)

* * *

Task for the reader: assign each of the following compounds its reported GI50.
# Tested on: SR
# EXPERIMENTAL PROTOCOL: NCI tumour cell line growth inhibition, 48 h
The source made the active and inactive calls. Rule as the data show it: active = GI50 up to about 1.1 µM and inactive = higher.

Answered examples (3):
[
  {
    "COMPOUND": "C=CCOC(=O)C1C2OC3(C(C(=O)OC)=C2C(=O)OC)c2ccccc2CCC13 (stereo not given)",
    "SYSTEM NAME": "SR",
    "RESULT": "> 10 µM (inactive)"
  },
  {
    "COMPOUND": "COC(=O)C(C)(NC(=O)C(CC(=O)OC(C)(C)C)NC(=O)OC(C)(C)C)c1ccccc1 (stereo not given)",
    "SYSTEM NAME": "SR",
    "RESULT": "73.5 µM (inactive)"
  },
  {
    "COMPOUND": "CC1(Br)CC2OC3(Br)C=CC(C)(O)C2(CC1=O)C3(C)C (stereo not given)",
    "SYSTEM NAME": "SR",
    "RESULT": "82.4 µM (inactive)"
  }
]

Here are 6 compounds. What values of GI50 were reported for them?
1. C=CCOC(OCC=C)/C(Br)=C/C
2. O=Cc1ccc2c(c1-c1c(C=O)ccc3c1OCO3)OCO2
3. CCOC(=O)c1cc(-c2ccc(OC)cc2)c([N+](=O)[O-])[nH]1
4. C=C(C)[C@@]1(OC(=O)c2cc([N+](=O)[O-])cc([N+](=O)[O-])c2)C[C@@H]2CCCC[C@@H]21
5. COC(=O)c1cccc2cccc(C(=O)Nc3ccc(C)cc3C)c12
6. O=C(c1ccccc1)c1ccc(C(c2c(O)c3ccccc3oc2=O)c2c(O)c3ccccc3oc2=O)cc1

Response:
["> 100 µM (inactive)", "> 100 µM (inactive)", "> 10 µM (inactive)", "> 100 µM (inactive)", "37.6 µM (inactive)", "20.1 µM (inactive)"]

Query: Give recorded GI50. CCOC(=O)/C=C1\C[C@H](NC(=O)OCc2ccccc2)C(=O)N1CC(=O)OCC
Response: > 100 µM (inactive)

* * *

# Test system: SK-MEL-5
# EXPERIMENTAL PROTOCOL: NCI tumour cell line growth inhibition, 48 h
The source made the active and inactive calls. Cut-off read from the data, not from the text of the source: active = GI50 up to about 1.1 µM and inactive = higher.
Answer with one of the outcomes given here: active, inactive

[
  {
    "MOLECULE": "C/C(=C\\C(=O)Nc1ccc2[nH]nnc2c1)Nc1ccc2[nH]nnc2c1",
    "SYSTEM NAME": "SK-MEL-5",
    "CLASSIFICATION": "inactive"
  },
  {
    "MOLECULE": "COC(=O)C(NC(=O)c1ccccc1)c1ccco1 (configuration not stated)",
    "SYSTEM NAME": "SK-MEL-5",
    "CLASSIFICATION": "inactive"
  },
  {
    "MOLECULE": "CCN(CC)CCCC(C)Nc1cc(/C=C/c2ccc(Cl)cc2)nc2cc(N(C)C)ccc12 (configuration not stated)",
    "SYSTEM NAME": "SK-MEL-5",
    "CLASSIFICATION": "inactive"
  },
  {
    "MOLECULE": "CC(=O)/C=C/c1cccc(N=S)c1",
    "SYSTEM NAME": "SK-MEL-5",
    "CLASSIFICATION": "inactive"
  },
  {
    "MOLECULE": "CC(=O)Nc1ccc(S(=O)(=O)/N=C2\\C=CC(=O)c3ccccc32)cc1",
    "SYSTEM NAME": "SK-MEL-5",
    "CLASSIFICATION": "inactive"
  }
]

Query: Assay result, entry COc1ccc2c(c1)CCc1c(-c3n[nH]c4c3CCc3cc(OC)ccc3-4)n[nH]c1-2 — outcome?
Response: inactive

Query: Assay result, entry Clc1ccc(C2=NCON=C2c2ccc(Cl)cc2)cc1 — outcome?
Response: inactive

Query: Assay result, entry Cc1nn(C(=O)c2ccc(Cl)cc2)c2c1C(c1ccccc1[N+](=O)[O-])SC(=N)N2 (configuration not stated) — outcome?
Response: inactive

Query: Assay result, entry COc1ccc(C2=NNC(=O)c3ccccc3N2c2nc(-c3cccs3)nc3cc(OC)c(OC)cc23)cc1 — outcome?
Response: inactive

Query: Assay result, entry O=C(CC(=O)c1cccc2ccccc12)C(=O)NC1C2CC3CC(C2)CC1C3 (configuration not stated) — outcome?
Response: inactive

Query: Assay result, entry COC(CC1(OC)OC(=O)C=C1N)OC (configuration not stated) — outcome?
Response: inactive

Query: Assay result, entry Cc1ccc(S(=O)(=O)NC(=O)NC2=NC(C)(C)N(c3ccc(Cl)c(Cl)c3)C(N)=N2)cc1 — outcome?
Response: inactive

Query: Assay result, entry O=C(OCc1ccccc1)N1CCN(C(=O)OCc2ccccc2)CCN(C(=O)OCc2ccccc2)CCN(C(=O)OCc2ccccc2)CCN(C(=O)OCc2ccccc2)CC1 — outcome?
Response: inactive

Query: Assay result, entry O=C1O[C@@H](c2ccccc2)C[C@H]1CN1CCOCC1 — outcome?
Response: inactive

Query: Assay result, entry Cc1cccc(NC(=S)N/N=C(/c2ccccc2)c2ccccn2)c1 — outcome?
Response: active

Query: Assay result, entry N#CCCC(C=O)(CCC#N)CCC#N — outcome?
Response: inactive

Query: Assay result, entry Cc1ccc(S(=O)(=O)NC(=O)NCC(N)=O)cc1 — outcome?
Response: inactive

Query: Assay result, entry O=C1Nc2ccccc2C12CCNC2Cc1ccccc1 (configuration not stated) — outcome?
Response: inactive

Query: Assay result, entry CNC1=Nc2ccc(Cl)cc2C(OP(=O)(N2CCOCC2)N2CCOCC2)=NC1 — outcome?
Response: inactive

Query: Assay result, entry COC1=CC(=O)C2=C(C1=O)[C@H]1CC[C@]3(C)[C@@H](OC(C)=O)CC[C@H]3[C@@H]1CC2 — outcome?
Response: inactive

Query: Assay result, entry Cn1c(=O)c(C(=O)NC(=O)NCCCCCOC(=O)CCCCCCCCCCC(=O)OCCCCCNC(=O)NC(=O)c2cn(Cc3ccccc3)c(=O)n(C)c2=O)cn(Cc2ccccc2)c1=O — outcome?
Response: inactive

Query: Assay result, entry O=C(c1ccccc1)c1ccc(C(c2c(O)c3ccccc3oc2=O)c2c(O)c3ccccc3oc2=O)cc1 — outcome?
Response: inactive

Query: Assay result, entry CNc1ncccc1Nc1cc(=O)n2c3cccnc3n(C)c2c1 — outcome?
Response: inactive

Query: Assay result, entry COC(=O)C(Cc1ccccc1)C(=O)NC(CNC(=O)OCc1ccccc1)C(=O)OCc1ccccc1 (configuration not stated) — outcome?
Response: inactive

Values were extracted from ChEMBL document CHEMBL1201862.
